target: T1, cyno FcRn/b2M (cyno, UniProt Q8SPV9 24-297; Q8SPW0 21-119, biotinylated); test: SPR pH 6.0;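 also: surface plasmon resonance kinetics at 25 °C, diluted periplasmic extracts injected over immobilized ligand surfaces, 120 s association then 600–3600 s dissociation, running buffer containing 150 mM NaCl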
T1 construct: bought recombinant biotinylated protein (Immunitrack ITF05 or ACRO FCM-C82W5); also called cFcRn; cFcRn/cb2M
T1 sequence (Q8SPV9 24-297 limits assumed, chain 1 of 2): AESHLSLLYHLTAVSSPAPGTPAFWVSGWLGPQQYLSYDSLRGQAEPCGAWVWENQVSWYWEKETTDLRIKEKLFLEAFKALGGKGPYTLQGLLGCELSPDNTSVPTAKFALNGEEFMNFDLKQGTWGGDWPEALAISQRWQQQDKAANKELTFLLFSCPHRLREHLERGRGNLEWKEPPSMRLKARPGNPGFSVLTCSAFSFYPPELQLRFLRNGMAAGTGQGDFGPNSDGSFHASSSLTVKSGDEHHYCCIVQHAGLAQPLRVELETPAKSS
T1 sequence (Q8SPW0 21-119 limits assumed, chain 2 of 2): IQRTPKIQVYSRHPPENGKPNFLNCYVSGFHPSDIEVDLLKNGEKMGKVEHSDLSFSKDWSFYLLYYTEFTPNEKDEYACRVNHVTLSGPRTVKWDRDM
Attribute measured: koff

{"Binder": "T0263018B11 T57V (VHH, name in Kabat numbering, FLAG3-His6 tagged) VHH: EVQLVESGGGVVQPGGSLRLSCAASGFTFSSYAMYWVRQAPGKGLEWVSAISSGGGSVDYADSVKGRFTISRDNSKNTLYLQMNSLRPEDTALYYCAADTLYTSLTWYSYWGQGTLVTVSS", "Obs value": "0.00064 s⁻¹"}
{"Binder": "T0263018B11 T28I (VHH, name in Kabat numbering, FLAG3-His6 tagged) VHH: EVQLVESGGGVVQPGGSLRLSCAASGFIFSSYAMYWVRQAPGKGLEWVSAISSGGGSTDYADSVKGRFTISRDNSKNTLYLQMNSLRPEDTALYYCAADTLYTSLTWYSYWGQGTLVTVSS", "Obs value": "0.00044 s⁻¹"}
{"Binder": "T0263018B11 F29V (VHH, name in Kabat numbering, FLAG3-His6 tagged) VHH: EVQLVESGGGVVQPGGSLRLSCAASGFTVSSYAMYWVRQAPGKGLEWVSAISSGGGSTDYADSVKGRFTISRDNSKNTLYLQMNSLRPEDTALYYCAADTLYTSLTWYSYWGQGTLVTVSS", "Obs value": "0.0016 s⁻¹"}
{"Binder": "T0263018B11 S52D (VHH, name in Kabat numbering, FLAG3-His6 tagged) VHH: EVQLVESGGGVVQPGGSLRLSCAASGFTFSSYAMYWVRQAPGKGLEWVSAIDSGGGSTDYADSVKGRFTISRDNSKNTLYLQMNSLRPEDTALYYCAADTLYTSLTWYSYWGQGTLVTVSS", "Obs value": "0.0031 s⁻¹"}
